- System: CIT
- Design: species or system human, MV4-11 + K-562 + COLO205 + SK-N-BE2 + OVCAR-8
- experimental-context: read-out: apparent Kd; compound concentrations:100 nM and 1000 nM (sheet 'Samples'); n = 1
Entry class follows potency estimated from few doses: Low: < 600 nM; Medium: ≥ 600 nM and < 1000 nM; High: ≥ 1000 nM

# molecule, assigned-category
data = [
    ("CC(C)N1CCC(n2cnc(-c3ccc(F)cc3)c2-c2ccnc(N)n2)CC1", "Medium"),
    ("CCn1c(-c2nonc2N)nc2c(C#CC(C)(C)O)ncc(OCCCCN)c21.CCn1c(-c2nonc2N)nc2c(C#CC(C)(C)O)ncc(OCCCCN)c21.O=C(O)C(F)(F)F.O=C(O)C(F)(F)F [GSK507274A]", "Low"),
    ("CCn1c(-c2nonc2N)nc2c(C#CC(C)(C)O)nc(O[C@@H](CN)c3ccccc3)cc21.O=C(O)C(F)(F)F [GSK1007102B]", "Low"),
    ("Cc1occc1-c1nc(N)c(OC[C@@H](N)Cc2c[nH]c3ccccc23)cc1-c1cc2c(C)n[nH]c2cn1 [GSK1660450B]", "Low"),
    ("Cc1cccc(-c2nc(Nc3ccncc3)c3ccccc3n2)n1 [GW855857X]", "High"),
    ("Cc1ccc2c(-c3ccncc3)c(-c3ccc(F)cc3)nn2c1.Cl [GW461484A]", "High"),
    ("Fc1ccc(-c2nc[nH]c2-c2ccncc2)cc1", "Medium"),
    ("CNc1nccc(-c2c(-c3ccc(F)cc3)ncn2C2CCN(C)CC2)n1", "Medium"),
    ("Cc1n[nH]c2ccc(-c3cc(OC[C@@H](N)Cc4ccccc4)cnc3-c3ccoc3)cc12.Cc1n[nH]c2ccc(-c3cc(OC[C@@H](N)Cc4ccccc4)cnc3-c3ccoc3)cc12.O=C(O)C(F)(F)F.O=C(O)C(F)(F)F [GSK507358A]", "High"),
    ("CN1CCC(n2cnc(-c3ccc(F)cc3)c2-c2ccnc(N)n2)CC1", "Low"),
    ("CCn1c(-c2nonc2N)nc2c(C#CC(C)(C)O)nc(OCCN)cc21.CCn1c(-c2nonc2N)nc2c(C#CC(C)(C)O)nc(OCCN)cc21.Cl.Cl [GSK902056A]", "High"),
    ("CNc1nc(-c2ccc3c(N)n[nH]c3c2)cc(N2C[C@@H](C(=O)NC3CCCCC3)CC[C@H]2C)n1", "High"),
    ("CC(=O)c1c(-c2ccncc2)[nH]c(-c2ccncc2)c1C [GW493036X]", "Low"),
    ("CCn1c(-c2nonc2N)nc2cncc(C(=O)N3CC[C@H](N)C3)c21.Cl", "High"),
]

The origin of these recorded values is paper PMC11062922.
